Provenance of the data: PubChem BioAssay AID282

# Test system: BDF1 mice, L1210 terephthalanilide-resistant leukemia ip, survival T/C
# ASSAY_TEXT: NCI In Vivo Anticancer Drug Screen. Data for tumor model L1210 Leukemia resistant to A Terephthalanilide; NSC 38280 (intraperitoneal) in B6D2F1 (BDF1) mice
# MEASUREMENT_PARAMETERS: endpoint: mean survival time; dose: 20.0 mg/kg/injection; schedule: Q01DX010 (ip); vehicle: saline
Toxic doses and inconclusive results are not listed. How the source made its calls: active means survival T/C of 150% or more; inactive means T/C below 125% in these data.
Could you please pick one outcome from this set? y = active, n = inactive

Asked: Fill in: this test's call for CNc1nc(Nc2ccc(C3=NCCN3)cc2)nc(Nc2ccc(C3=NCCN3)cc2)n1 is ___
Given back: n

Asked: Any idea what this test logged for CN=C(NC)c1ccc(NC(=O)Nc2ccc(NC(=O)Nc3ccc(C(=NC)NC)cc3)cc2)cc1 ?
Given back: n

Asked: Any idea what this test logged for OCC1OC(n2cnc3c(=S)nc[nH]c32)C(O)C1O (centres undefined) ?
Given back: n

Asked: Call for entry CC[n+]1ccccc1-c1ccc(NC(=O)c2ccc(C(=O)Nc3ccc(-c4ccccn4)cc3)cc2)cc1 :
Given back: n

Asked: Identify the outcome logged in this assay for the compound shown: C[n+]1ccc(NC(=O)c2ccc(NC(=O)c3cccc(C(=O)Nc4ccc(C(=O)Nc5cc[n+](C)cc5)cc4)c3)cc2)cc1
Given back: n

Asked: Outcome logged for S=P(N1CCOCC1)(N1CC1)N1CC1 in this assay:
Given back: n

Asked: State the result this test recorded for Cn1c(N)nc2nc[nH]c2c1=S .
Given back: n

Asked: So what was the verdict on CSc1ncnc2c1ncn2C1OC(CO)C(O)C1O (centres undefined) in this test?
Given back: y

Asked: Given CC1CCOS(=O)O1 (centres undefined) , state the outcome it received in this test.
Given back: n
